Target: PIK3CG (human)
Assay: Inhibition of PIK3CG Kinase Activity
Entries and their IC50 values follow.

{"Smiles Repr": "CC(=O)Nc1nc2c(s1)-c1c(c(C3(C)CC3)nn1-c1ccc(C(=O)NC3CCN(C(C)C)CC3)cc1Cl)CC2", "System": "PIK3CG (human)", "Result": "< 600 nM"}

Field IC50 (entry CC(=O)Nc1nc2c(s1)-c1c(c(C3CC3)nn1-c1ccc(C(=O)N[C@H]3CC[C@@H](N(C)C)CC3)cc1Cl)CC2 ) reads < 600 nM

Entry CNC(=O)c1ccc(-n2nc(C3CCCC3)c3c2-c2sc(NC(C)=O)nc2CC3)c(Cl)c1 ; IC50 = < 600 nM

IC50 reading for CNC(=O)c1ccc(-n2nc(C3(C)CC3)c3c2-c2sc(NC(C)=O)nc2CC3)c(Cl)c1 : < 600 nM

The value of IC50 measured for the molecule CC(=O)Nc1nc2c(s1)-c1c(c(C3CC3)nn1-c1ccc(C(=O)N[C@H]3CC[C@@H](N4CCCCC4)CC3)cc1C)CC2 turned out to be < 600 nM

get_value(item= CC(=O)Nc1nc2c(s1)-c1c(c(C3CC3)nn1-c1ccc(C(=O)NC3CCN(C4CCCC4)CC3)cc1C)CC2 , readout=IC50) returns < 600 nM

For COc1cc(-n2nc(C3CC3)c3c2-c2sc(NC(C)=O)nc2CC3)ccc1C(=O)N(C)C1CCN(C2CCCC2)CC1 the molecule record lists IC50 as < 600 nM

The molecule identified as CC(=O)Nc1nc2c(s1)-c1c(c(C3CC3)nn1-c1ccc(C(=O)N[C@H]3CCN(C4CCCCC4)C3)cc1F)CC2 registered its IC50 at < 600 nM
